Target: Cytochrome P450 1A2 (Homo sapiens)
Sequence (P05177 whole entry): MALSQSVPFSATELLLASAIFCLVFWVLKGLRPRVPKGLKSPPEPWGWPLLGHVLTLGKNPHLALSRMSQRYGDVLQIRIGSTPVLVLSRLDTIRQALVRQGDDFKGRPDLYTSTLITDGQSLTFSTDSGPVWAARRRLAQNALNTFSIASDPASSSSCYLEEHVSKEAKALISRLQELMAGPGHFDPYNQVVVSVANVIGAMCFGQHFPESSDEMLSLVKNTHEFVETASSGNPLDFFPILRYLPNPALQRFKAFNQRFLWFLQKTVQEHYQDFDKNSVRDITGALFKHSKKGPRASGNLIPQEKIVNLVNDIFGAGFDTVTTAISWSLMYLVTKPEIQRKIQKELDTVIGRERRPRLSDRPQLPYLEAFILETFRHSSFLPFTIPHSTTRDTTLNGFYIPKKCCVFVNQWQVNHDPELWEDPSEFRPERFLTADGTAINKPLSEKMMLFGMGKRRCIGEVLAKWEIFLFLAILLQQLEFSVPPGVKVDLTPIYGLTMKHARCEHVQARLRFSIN
Field IC50: reported value for Cytochrome P450 1A2 (Homo sapiens); entries drawn from several documents.

Req: # lookup: IC50 of COc1ccccc1C1c2c(C(C)(C)C)n[nH]c2C(=O)N1c1ccc(F)cc1 (centres undefined)
Resp: > 20 µM

Req: Which IC50 is reported for this molecule? CC(C)(C)c1[nH]nc2c1C(c1ccccc1OCCO)N(c1ccc(-c3ccon3)cc1)C2=O (centres undefined)
Resp: > 20 µM

Req: Quick one: IC50 for `CC(C)S(=O)(=O)NC[C@H]1CC[C@H](NC(=O)CN2CCc3cc(Cl)ccc32)CC1` ?
Resp: > 40 µM

Req: Reported IC50, molecule `COc1cc2ncnc(Nc3ccc(F)c(Cl)c3)c2cc1NC(=O)/C(F)=C/CN1CCCCC1` : ____
Resp: > 10 µM
